Test system: PC-9 (EGFR exon 19 deletion)
Assay: Cell antiproliferative assay (CTG, 72 h), PC-9
Type: cell-based, human
Conditions: Homo sapiens, PC-9, 72 h, Table 2, PC-9 cells
# IC50 listing for each entry below

1. C=CC(=O)Nc1cc(Nc2ncc(Cl)c(Nc3ccccc3)n2)c(OC)cc1N1CCN(C(=O)CN2CCC(c3ccc(NC4CCC(=O)NC4=O)cc3)CC2)CC1 (centres unmarked) : 100 to 1000 nM

Value of measured IC50 for the entry CNC(=O)c1ccccc1Nc1nc(Nc2cc(C)c(N3CCN(C(=O)CN4CCC(c5ccc(NC6CCC(=O)NC6=O)cc5F)CC4)CC3)cc2OC)ncc1C(F)(F)F (centres unmarked) : 10 to 100 nM

Value of measured IC50 for the entry COc1cc(N2CCN(C(=O)CN3CCC(c4ccc(NC5CCC(=O)NC5=O)cc4)CC3)CC2)ccc1Nc1ncc(Cl)c(Nc2ccccc2NC(C)=O)n1 (centres unmarked) : 100 to 1000 nM

Value of measured IC50 for the entry COc1cc(N2CCC(N3CCN(C(=O)CCCCN4CCN(c5ccc6c(c5)C(=O)N(C5CCC(=O)NC5=O)C6=O)CC4)CC3)CC2)ccc1Nc1ncc(Cl)c(Nc2ccccc2C(C)=O)n1 (centres unmarked) : ≥ 1000 nM

Value of measured IC50 for the entry COc1cc(N2CCN(CC(=O)N3CCC(c4ccc(NC5CCC(=O)NC5=O)cc4)CC3)CC2)ccc1Nc1ncc(Cl)c(Nc2ccccc2C(C)=O)n1 (centres unmarked) : 100 to 1000 nM

* * *

System: H1975 (EGFR L858R/T790M double mutation)
Experiment: Cell antiproliferative assay (CTG, 72 h), H1975
Type: cell-based, human
Conditions: Homo sapiens, NCI-H1975, 72 h, Table 2, H1975 cells
quantity: IC50

1) COc1cc(N2CCN(C(=O)CN3CCC(c4ccc(NC5CCC(=O)NC5=O)cc4)CC3)CC2)ccc1Nc1ncc(C(F)(F)F)c(Nc2ccccc2P(C)(C)=O)n1 (stereo not drawn) : 10 to 100 nM
2) COc1cc(N2CCN(c3ncc(Cl)c(Nc4ccccc4C(C)=O)n3)CC2)ncc1NC(=O)CN1CCC(c2ccc(NC3CCC(=O)NC3=O)cc2)CC1 (stereo not drawn) : ≥ 1000 nM

// below: IC50 requested for another compound
Value of measured IC50 for the entry CNC(=O)c1ccccc1Nc1nc(Nc2cc(CC(F)(F)F)c(N3CCN(C(=O)CN4CCC(c5ccc(NC6CCC(=O)NC6=O)cc5)CC4)CC3)cc2OC)ncc1Cl (stereo not drawn) : 10 to 100 nM

* * *

# IC50 listing for each entry below
Tested on: H1975 (EGFR L858R/T790M double mutation)
Test: Cell antiproliferative assay (CTG, 72 h), H1975
Type: cell-based, human
Conditions: Homo sapiens, NCI-H1975, 72 h, Table 2, H1975 cells

1) COc1cc(N2CCN(C(=O)CN3CCC(c4ccc(NC5CCC(=O)NC5=O)cc4)CC3)CC2)ccc1Nc1ncc(Cl)c(Nc2ccccc2C(=O)N(C)C)n1 (stereo not drawn) : ≤ 10 nM
2) COc1cc(N2CCC(N3CCN(C(=O)CCCCN4CCN(c5ccc6c(c5)C(=O)N(C5CCC(=O)NC5=O)C6=O)CC4)CC3)CC2)ccc1Nc1ncc(Cl)c(Nc2ccccc2N(C)S(C)(=O)=O)n1 (stereo not drawn) [Comparative Compound 3, reference compound] : 100 to 1000 nM

// below: IC50 requested for another compound
Value of measured IC50 for the entry COc1cc(N2CCN(C(=O)CN3CCC(c4ccc(NC5CCC(=O)NC5=O)cc4)C3)CC2)ccc1Nc1ncc(Cl)c(Nc2ccccc2C(C)=O)n1 (stereo not drawn) : 100 to 1000 nM
